Each item that follows carries a reported IC50.
System: isogenic wildtype mIMCD-3 cells
experimental.details: Luminescence-based ATP-dependent cell viability assay (CellTiter-Glo 2.0), dose-response, isogenic wildtype counter screen
conditions: Mus musculus, mIMCD3; isogenic wildtype mIMCD-3 control cells; 72 hours compound incubation; read-out: IC50 wildtype
Method: Subculturing of cells was performed twice a week in a 1:10 ratio. Cells were maintained in a humidified incubator at 37°C and 5% CO2. […] The term "wild-type" is used for mIMCD-3 cells that were not edited by CRISPR-Cas9. […] After 72 hours of compound incubation, plates were allowed to adapt to room temperature for 20 minutes. […] The luminescence signal was allowed to stabilize for 20 min. […]

structure	modifier	IC50 (µM)
COc1cc2ncnc(Nc3cccc(Cl)c3C)c2cc1OC	>	30
CCOC(=O)CCNc1cc(N2CCc3ccccc3CC2)nc(-c2ccccn2)n1	=	7.69
Fc1ccccc1-c1cc(NCCc2c[nH]c3ccccc23)nc(-c2ccccn2)n1	=	9.68
O=C(Nc1ccccc1C(=O)NCc1ccccn1)c1ccc([N+](=O)[O-])o1	=	24.5

# credit: patent EP4667628A1
